study.system: T1, recombinant human C5 (human, UniProt P01031 20-1676)
T1 construct: The same entry is used here for C5 in normal human serum in the functional rows; also called hC5; rhC5
method: SPR (BIACORE T200), antibody captured by ProA/G, recombinant human C5 injected, 37 degrees C, pH7.4; pH 7.4
Please provide measured koff for the entries that follow.
One number for each entry, in s⁻¹.

These solved cases illustrate the format of a correct answer.
| binder | numeric.result |
| --- | --- |
| CFA0305 (antibody, V domains shown) VH: QSLEESGGDLVKPGASLAVTCTASGFSSSSSYYMCWVRQAPGKGLEWIGCIYTGSGATYYASWAKGRFTISKTSSTTVTLQMTSLTVADTATYFCASDGGYVTPTHAMYLWGPGTLVTVSS VL: DVVMTQTPASVSAAVGGTVTIKCQASQNIGSDLAWYQQKPGQPPRLLIYGASKLASGVSSRFSGSGSGKEFTLTISDLECADAVTYYCQCTFVGSSYGNAFGGGTEVVVK | 0.000589 |
| CFA0366 (antibody, V domains shown) VH: QSLEESGGDLVKPGASLSLTCTAAGLDFSSSYYMCWVRQAPGKGLEWIACIYAGSSGIIYYANWAKGRFTISRPSSTTVTLQMTSLTAADTATYFCATYPTYGDGGHAFNLWGPGTLVTVSS VL: AQVLTQTPSSVSAAVGGTVTINCQSSQSVYSSDYLSWYQQKPGQPPKLLIYEASKLASGVPPRFSGSGSGTQFTLTISGVQCDDAATYYCQGTYYSSGWYFAFGGGTEVVVK | 0.00934 |

Now for the binder whose koff we want.
# lookup: koff of CFA0672 (antibody, V domains shown) VH: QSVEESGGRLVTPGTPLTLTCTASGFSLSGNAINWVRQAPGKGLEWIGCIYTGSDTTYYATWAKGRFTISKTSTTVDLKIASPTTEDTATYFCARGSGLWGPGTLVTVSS VL: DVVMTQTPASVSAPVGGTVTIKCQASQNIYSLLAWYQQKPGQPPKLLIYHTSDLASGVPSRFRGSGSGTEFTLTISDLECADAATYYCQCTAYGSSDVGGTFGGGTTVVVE 0.000183
